Target: T1, pig CD47 (pig, UniProt Q9GKE8 19-303)
T1 construct: whole, on cells; also called CD47 on pig red blood cells
T1 sequence (looked up): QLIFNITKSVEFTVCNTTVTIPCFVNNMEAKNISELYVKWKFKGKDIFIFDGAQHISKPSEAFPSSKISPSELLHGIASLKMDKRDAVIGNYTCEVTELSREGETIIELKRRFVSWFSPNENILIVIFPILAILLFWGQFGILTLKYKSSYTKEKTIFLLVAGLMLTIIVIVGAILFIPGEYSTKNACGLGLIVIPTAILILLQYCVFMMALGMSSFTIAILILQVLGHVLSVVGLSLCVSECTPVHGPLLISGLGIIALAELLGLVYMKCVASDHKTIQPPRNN
Experiment: flow cytometry on RBCs, antibody 10 ng/ml
Items are presented alongside their recorded mean fluorescence relative to chimeric antibody.
VALUE TYPE: mean fluorescence relative to chimeric antibody

- pVxK7b-037-hum08-LC/pVxK7b-037-hum08-HC (antibody, human IgG1, V domains shown, Full-length human IgG1/kappa in CHO supernatant; Variable entries end within framework 4 (...FGQG / ...WGQG); also called Clone 8) VH: QITLKESGPTLVKPTQTLTLTCTFSGYTFTNYYVFWIRQSPSRGLEWLGDINPVNGDTNFNEKFKNRFTISRDNAKNSLYLQMNSLRAEDTAVYYCARGGYTMDYWGQG VL: DIVMTQTPLSLPVTPGEPASISCRSSQSLVHSNGNTYLHWYQQKPGKAPKLLIYKVSYRFSGVPDRFSGSGSGTDFTLKISRVEAEDVGVYYCSQNTHVPRTFGQG: 0.8 fold of chimera
- chimeric antibody VxP037-01LC/VxP037-01HC (antibody, human IgG1, kappa, V domains shown, tested as CHO supernatant; also called Chimera; VxP037-01-LC-Pro/VxP037-01-HC-Pro) VH: EVQLQQFGAELVKPGASMKLSCKASGYTFTNYYVFWVKQRPGQGLEWIGDINPVNGDTNFNEKFKNKATLTVDKSSTTTYLQLSSLTSEDSAVYYCTRGGYTMDYWGQGTLVTVSS VL: DVVMTQTPLSLSVSLGDQASISCRSSQSLVHSNGNTYLHWYLQKPGQSPKLLIYKVSYRFSGVPDRFSGSGSGTDFTLKISRVEAEDLGVYFCSQNTHVPRTFGQGTKVEIKR: 1 fold of chimera
- pVxK7b-037-hum21-LC/pVxK7b-037-hum21-HC (antibody, human IgG1, V domains shown, Full-length human IgG1/kappa in CHO supernatant; Variable entries end within framework 4 (...FGQG / ...WGQG); also called Clone 21) VH: QVQLQESGPGLVKPSQTLSLTCTVSGYTFTNYYVFWVRQARGQRLEWIGDINPVNGDTNFNEKFKNRLTISKDTSKNQVVLTMTNMDPVDTATYYCARGGYTMDYWGQG VL: AIQLTQSPSSLSASVGDRVTITCRSSQSLVHSNGNTYLHWYQQKPGQAPRLLIYKVSYRFSGVPDRFSGSGSGTDFTLKISRVEAEDVGVYYCSQNTHVPRTFGQG: 1.4 fold of chimera
